Target: Dihydroorotate dehydrogenase (quinone), mitochondrial (Plasmodium falciparum (isolate 3D7)) (UniProt Q08210)
Sequence (Q08210 whole entry, looked up): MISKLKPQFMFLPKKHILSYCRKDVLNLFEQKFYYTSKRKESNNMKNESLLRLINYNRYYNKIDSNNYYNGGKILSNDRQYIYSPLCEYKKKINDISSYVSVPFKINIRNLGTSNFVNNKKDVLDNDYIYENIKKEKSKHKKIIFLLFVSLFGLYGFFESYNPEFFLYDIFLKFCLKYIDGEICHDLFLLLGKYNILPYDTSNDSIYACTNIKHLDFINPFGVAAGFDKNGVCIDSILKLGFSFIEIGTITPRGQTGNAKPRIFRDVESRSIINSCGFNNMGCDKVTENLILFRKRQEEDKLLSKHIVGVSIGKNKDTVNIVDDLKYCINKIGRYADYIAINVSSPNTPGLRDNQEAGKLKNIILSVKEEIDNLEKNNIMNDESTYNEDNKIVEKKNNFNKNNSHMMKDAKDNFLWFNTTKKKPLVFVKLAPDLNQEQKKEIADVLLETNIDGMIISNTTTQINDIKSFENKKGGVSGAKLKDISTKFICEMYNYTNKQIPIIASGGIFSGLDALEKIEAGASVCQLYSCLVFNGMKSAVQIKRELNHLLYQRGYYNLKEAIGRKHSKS
Assay: inhibition of P. falciparum DHODH – biochemical, C-terminal His tag, absorbance 600 nm, primary screen (AID 1175);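 further: recombinant parasite enzyme with a five histidine tag at its C terminus; test concentration not given here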
Details: PfDHODH enzyme, DCIP absorbance 600 nm; higher = more signal, called active from +8 up or from −8 down
assay readout: composite z-score
Reply: number alone, nothing else.

Returns the measured composite z-score for the input compound. Input: Cc1ccc(S[C@]2(C(=O)O)CC(=O)N(C(C)C)[C@@H]2c2ccc(CO)cc2)cc1
-0.896

Also need O=C1O[C@H](c2ccccc2)[C@H](c2ccccc2)N2[C@H]1[C@@H](C(=O)NC[C@H](O)c1ccccc1)[C@]1(C(=O)Nc3ccc(C#CC4=CCCCC4)cc31)[C@H]2c1ccccc1OCCO , thanks.
-0.894

Try CS(=O)(=O)CCOC(=O)C1=CC(CCCO)=CC(c2ccc(CN3CCCC3)cc2)N(Cc2cccc(OC(F)(F)F)c2)C=C1C(=O)OCCS(C)(=O)=O (configuration not stated) next.
-1.03

Follow-up item: COc1ccc(NN2C(C(O)c3ccc(N(C)C)cc3)C=CC3C(=O)N(C4CCCCC4)C(=O)C32)cc1 (configuration not stated)
0.128

Repeat with COCCCNC(=O)[C@@]1(Sc2ccc(C)cc2)CC(=O)N(Cc2ccccc2Cl)[C@@H]1c1ccc(CO)cc1
-1.08

Next entry: O=C1NC(=O)C2C1C=CC(C(O)c1ccc(I)cc1)N2Nc1ccc(Cl)cc1Cl (configuration not stated)
-1.4

Then C=CCNC(=O)[C@H]1[C@@H]2C(=O)O[C@@H](c3ccccc3)[C@@H](c3ccccc3)N2[C@@H](c2ccc(OCCO)cc2)[C@]12C(=O)Nc1ccc(C#CCC(C(=O)OC)C(=O)OC)cc12 ?
0.26

---

Assay: growth of efflux-deficient E. coli DRC39 – strain DRC39, OD650, 24 h, E. coli filamentation inducers, primary screen (AID 1178);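 further: growth measured as culture turbidity by optical density at 650 nm; test concentration not given here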
Settings: E. coli DRC39 acrAB, higher = more signal, called active from +8 up or from −8 down
Is z-score at least 0.1? Then Criterion met. If not, Criterion not met.

Say whether COCCOC(=O)N1C(=O)[C@@]2(c3cc(C#CC4=CCCCC4)ccc31)[C@H](C(N)=O)[C@H]1C(=O)O[C@H](c3ccccc3)[C@H](c3ccccc3)N1[C@@H]2c1ccc(O)cc1 shows z-score of 0.1 or more.
Criterion met

Try Cc1ccc(S(=O)(=O)N2C[C@@H](C(=O)O)[C@H](Sc3ccccc3)C[C@H]2c2ccccc2)cc1 next.
Criterion not met

Same lookup for CC(C)[C@@H](C(=O)O)n1cc(C2(O)CCCCC2)nn1 , please.
Criterion met

Also Cc1c(NC(=O)/C(C#N)=C/c2cccc([N+](=O)[O-])c2)c(=O)n(-c2ccccc2)n1C ?
Criterion met

Continue with O=C(NC1CC1)[C@@H]1c2ccccc2C(=O)N(Cc2cc(F)cc(C(F)(F)F)c2)[C@H]1c1ccc(CO)cc1
Criterion met

Try this compound too: COc1ccc(CCNC(=O)[C@@]2(C)c3ccccc3C(=O)N(c3ccc(C)cn3)[C@H]2c2ccc(CO)cc2)cc1
Criterion not met

Also, CCCCCCCCCCC(O)C1C=CC2C(=O)NC(=O)C2N1Nc1ccc(Cl)cc1Cl (stereo not given) please.
Criterion not met

Similarly, COCCOC(=O)N1C(=O)[C@@]2(c3cc(C#CC4=CCCCC4)ccc31)[C@H](c1ccc(OCCO)cc1)N1[C@H](c3ccccc3)[C@H](c3ccccc3)OC(=O)[C@H]1[C@@H]2C(=O)N1CCc2cc(OC)c(OC)cc2C1 ?
Criterion met

What do you get for C=CCNC(=O)[C@@H]1[C@H]2C(=O)O[C@H](c3ccccc3)[C@H](c3ccccc3)N2[C@H](c2ccc(OCCO)cc2)[C@@]12C(=O)N(C(=O)OCCOC)c1ccc(C#CCNC(N)=O)cc12 ?
Criterion met

Now consider C#CCN(C/C=C/c1ccccc1)[C@H](CO)c1ccccc1 and answer again.
Criterion not met

Next entry: CC1CC/C=C\[C@H]2OC34C=CCN(Cn5nnc6ccccc65)C(=O)[C@H]3N(CCCCCO)C(=O)[C@@H]4C2C(=O)O1 (stereo not given in full)
Criterion met

Queued: COC(=O)[C@H](Cc1ccccc1)N[C@H](/C=C/C1CC1)[C@@H](O)Cc1ccccc1
Criterion met

Also COc1ccccc1CN1C(=O)c2ccccc2[C@@H](C(=O)NCc2ccccc2)[C@@H]1c1ccc(CO)cc1 ?
Criterion not met

Same lookup for COC(=O)C(CC#Cc1ccc2c(c1)[C@]1(C(=O)N2)[C@H](c2ccccc2OCCO)N2[C@H](c3ccccc3)[C@H](c3ccccc3)OC(=O)[C@H]2[C@@H]1C(N)=O)C(=O)OC , please.
Criterion not met

Try the compound CN(C)CCCCNC(=O)[C@@H]1C[C@@H]2C(=O)N[C@@H](CCCCN)C(=O)N2[C@@H]1c1ccc(O)cc1
Criterion met
